assay_info: ATG_AP_2_CIS: Attagene CIS-FACTORIAL HepG2 Assay for human Activator Protein 2 (AP-2) (AID 2282932)
measurement_setup: HepG2 AP-2 cis-reporter, Attagene transcription factor profiling; actives raise or lower the signal
Activity calls are given as the source filed them. Rule for the calls: active = hit-call score of the fitted dose curve at least 0.9, where 1 is the maximum; inactive = score below 0.9.
Possible outcomes: active, inactive

molecule: OCCOc1cccc(OCCO)c1
category_label: inactive
//
molecule: CN(CCOc1ccc(CC2SC(=O)NC2=O)cc1)c1ccccn1 (stereo unspecified)
category_label: inactive
//
molecule: OCCCCCO
category_label: inactive
//
molecule: CC(C)c1cccc(O)c1
category_label: inactive
//
molecule: CC(=O)[O][Al][O]C(C)=O
category_label: inactive
//
molecule: CCCc1c(OCCCOc2ccc(OCC(=O)O)cc2)ccc(C(C)=O)c1O
category_label: inactive
//
molecule: CC(C)c1ccc(C(C)C)cc1
category_label: inactive
//
molecule: CCCCC[Si](OCC)(OCC)OCC
category_label: inactive
//
molecule: Nc1cccc(S(=O)(=O)c2cccc(N)c2)c1
category_label: inactive
//
molecule: O=C(O)c1cn(C2CC2)c2cc(N3CCNCC3)c(F)cc2c1=O
category_label: inactive
//
molecule: O=Nc1ccc(Nc2ccccc2)cc1
category_label: inactive
//
molecule: CC(C)[C@@H]1CC[C@@H](C)CC1=O
category_label: inactive
//
molecule: O=Cc1ccc(F)cc1
category_label: inactive
//
molecule: CC(C)C1CCC(O)CC1 (stereo unspecified)
category_label: inactive
//
molecule: CC(=O)O[C@H](CC(=O)[O-])C[N+](C)(C)C
category_label: inactive
//
molecule: CCCCCCOC(=O)CCCCC
category_label: inactive
//
molecule: C=CC(C)(O)CCC=C(C)CCC=C(C)C (stereo unspecified)
category_label: active
//
molecule: O=C[C@H](O)[C@H](O)[C@H](O)CO
category_label: inactive
//
molecule: COC(C)CCO (stereo unspecified)
category_label: inactive
//
molecule: OCCOCCOCCOCCO
category_label: inactive
//
molecule: Cc1cc(C2(c3cc(C)c(O)cc3C)OS(=O)(=O)c3ccccc32)c(C)cc1O
category_label: inactive
//
molecule: O=C[C@@H](O)[C@H](O)[C@H](O)CO
category_label: inactive
//
molecule: CCCCCOC(=O)CCC
category_label: inactive
//
molecule: NC(=O)Nc1ccc(Cl)cc1
category_label: inactive
//
molecule: CCCCCCCCC
category_label: inactive
//
molecule: COC(=O)c1ccc(C)cc1
category_label: inactive
//
molecule: COc1cccc(OC)c1
category_label: inactive
//
molecule: C=CC(=O)OCCn1c(=O)n(CCOC(=O)C=C)c(=O)n(CCOC(=O)C=C)c1=O
category_label: active
//
molecule: CC(=O)C(C)=O
category_label: inactive
//
molecule: CC1CCC(C(C)CS)CC1S (stereo unspecified)
category_label: inactive
//
molecule: Nc1ccc(S(=O)(=O)O)c(N)c1
category_label: inactive

###

tested_system: Hepatocyte nuclear factor 3-beta (Homo sapiens) (UniProt Q9Y261)
Sequence (Q9Y261 whole entry, looked up): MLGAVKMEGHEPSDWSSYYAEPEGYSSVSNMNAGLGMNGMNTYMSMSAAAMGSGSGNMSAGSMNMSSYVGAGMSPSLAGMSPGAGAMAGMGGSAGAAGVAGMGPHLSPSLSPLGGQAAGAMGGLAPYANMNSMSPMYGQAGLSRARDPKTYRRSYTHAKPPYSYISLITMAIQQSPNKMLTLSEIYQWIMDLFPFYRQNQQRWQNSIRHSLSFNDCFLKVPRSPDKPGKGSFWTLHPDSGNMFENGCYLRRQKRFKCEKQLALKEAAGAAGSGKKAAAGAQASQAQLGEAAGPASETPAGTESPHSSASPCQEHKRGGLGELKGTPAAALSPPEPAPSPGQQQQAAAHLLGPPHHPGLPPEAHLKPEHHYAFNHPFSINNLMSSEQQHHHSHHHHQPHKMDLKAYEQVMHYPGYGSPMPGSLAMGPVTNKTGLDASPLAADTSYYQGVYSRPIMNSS
assay_info: ATG_FoxA2_CIS: Attagene CIS-FACTORIAL HepG2 Assay for human Forkhead box A2 (FOXA2) (AID 2282942)
measurement_setup: HepG2 cis-reporter transcription factor activity, 24 h; actives raise or lower the signal
Calls of active or inactive are those of the source. How the source made its calls: active means hit-call score of the fitted dose curve at least 0.9, where 1 is the maximum; inactive means score below 0.9.
Outcomes: 1 (yes) for active, 0 (no) for inactive

molecule: O=Nc1ccc(Nc2ccccc2)cc1
category_label: 1 (yes)
--
molecule: Clc1cccc(Cl)n1
category_label: 0 (no)
--
molecule: O=S(=O)(O)NC1CCCCC1
category_label: 0 (no)
--
molecule: c1ccc2c(c1)c1cccc3ccc4cccc2c4c31
category_label: 0 (no)
--
molecule: CN(C)c1ccc(O)c2c1C[C@H]1C[C@H]3[C@H](N(C)C)C(=O)C(C(N)=O)=C(O)[C@@]3(O)C(=O)C1=C2O
category_label: 0 (no)
--
molecule: CC(C)(C)NC(N)=O
category_label: 0 (no)
--
molecule: CCCC(=O)c1cc(O)c(O)cc1O
category_label: 0 (no)
--
molecule: CCCCNC(=O)NS(=O)(=O)c1ccc(C)cc1
category_label: 0 (no)
--
molecule: C=C[C@@H](C)CCC=C(C)C
category_label: 0 (no)
--
molecule: CC1(C)C(=O)N(Br)C(=O)N1Cl
category_label: 0 (no)
--
molecule: Nc1nc2ccc([N+](=O)[O-])cc2s1
category_label: 0 (no)
--
molecule: COc1nc(C)nc(N)n1
category_label: 0 (no)
--
molecule: CC1COc2ccccc2N1C(=O)C(Cl)Cl (centres undefined)
category_label: 0 (no)
--
molecule: Clc1ccc(Cl)c(Cl)c1Cl
category_label: 0 (no)

###

assay_info: ATG_TGFb_CIS: Attagene CIS-FACTORIAL HepG2 Assay for human Transforming Growth Factor (TGF) (AID 2282967)
measurement_setup: HepG2 Attagene CIS TGFb reporter, mRNA transcription; actives raise or lower the signal
Activity calls are given as the source filed them. Rule for the calls: active = hit-call score of the fitted dose curve at least 0.9, where 1 is the maximum; inactive = score below 0.9.
Possible outcomes: active, inactive

compound: CNCCO
category_label: inactive
//
compound: c1ccc2[nH]ccc2c1
category_label: inactive
//
compound: CCCCC(CC)COCCC#N (centres undefined)
category_label: inactive
//
compound: CN(C)c1ccc(O)c2c1C[C@H]1C[C@H]3[C@H](N(C)C)C(=O)C(C(N)=O)=C(O)[C@@]3(O)C(=O)C1=C2O
category_label: inactive
//
compound: CCC(=O)OCCC(C)CCC=C(C)C (centres undefined)
category_label: inactive
//
compound: CCCCCCC#CC(=O)OC
category_label: inactive
//
compound: C=C[C@@H](C)CCC=C(C)C
category_label: inactive
//
compound: CC1=CC(=O)NS(=O)(=O)O1
category_label: inactive
//
compound: COCCOCCOCCOCCOCCO
category_label: inactive
//
compound: C=CC(=O)OCC(O)COc1ccccc1 (centres undefined)
category_label: inactive
//
compound: CC(C)[C@H]1CC[C@@H](C)CC1=O
category_label: inactive
//
compound: CC(C)=CCC[C@H](C)CC=O
category_label: inactive
//
compound: Cc1ccccc1C=O
category_label: inactive
//
compound: CC(=O)c1c(C)cc(C(C)(C)C)cc1C
category_label: inactive
//
compound: Clc1nc(C(Cl)(Cl)Cl)c(Cl)c(Cl)c1Cl
category_label: active
//
compound: CN(C)CCOCCN(C)C
category_label: inactive
//
compound: O=C(O)c1cn(-c2ccc(F)cc2)c2cc(N3CCNCC3)c(F)cc2c1=O
category_label: inactive
//
compound: c1ccc2c(c1)c1cccc3ccc4cccc2c4c31
category_label: inactive
//
compound: OCCOc1cccc(OCCO)c1
category_label: inactive
//
compound: COc1ccc(O)cc1
category_label: inactive
//
compound: CC(=O)O[C@]1(C(C)=O)CC[C@H]2[C@@H]3C[C@H](C)C4=CC(=O)CC[C@]4(C)[C@H]3CC[C@@]21C
category_label: inactive
//
compound: O=C(O)COCCN1CCN(C(c2ccccc2)c2ccc(Cl)cc2)CC1 (centres undefined)
category_label: inactive
//
compound: COC(=O)c1ccc(C)cc1
category_label: inactive
//
compound: C=CC(C)(CCC=C(C)C)OC=O (centres undefined)
category_label: inactive
//
compound: c1cc(C(c2ccc(OCC3CO3)cc2)c2ccc(OCC3CO3)cc2)ccc1OCC1CO1 (centres undefined)
category_label: active
//
compound: C=COCCOCCOCCOC=C
category_label: inactive
//
compound: CC1(C)[C@H](C(=O)OCc2cccc(Oc3ccccc3)c2)[C@@H]1C=C(Cl)Cl
category_label: inactive
//
compound: Cc1cccc(C)c1C
category_label: inactive
//
compound: COc1nc(C)nc(N)n1
category_label: inactive

###

Read-out: Human Leukocyte Antigen - DR isotype (HLADR), HLA-DRA (gene 3122)
assay_info: BSK_BE3C_HLADR: BioMAP Diversity Plus: BE3C Assay for Human Leukocyte Antigen - DR isotype (HLADR) Biomarker Activity (AID 2283032)
measurement_setup: primary human bronchial epithelial cells; actives raise or lower the signal
Activity calls are given as the source filed them. The calls were made as follows: active = hit-call score of the fitted dose curve at least 0.9, where 1 is the maximum; inactive = score below 0.9.
Outcome codes: TRUE = active, FALSE = inactive

smiles_str: O=C(O)C[C@H](O)C[C@H](O)/C=C/c1c(C2CC2)nc2ccccc2c1-c1ccc(F)cc1
category_label: TRUE
//
smiles_str: CC(=O)[C@H]1CC[C@H]2[C@@H]3CC=C4C[C@@H](O)CC[C@]4(C)[C@H]3CC[C@]12C
category_label: FALSE
//
smiles_str: O=[N+]([O-])c1cc(C(F)(F)F)ccc1Cl
category_label: FALSE
//
smiles_str: C=CCOC(=O)CCC1CCCCC1
category_label: FALSE
//
smiles_str: CC(=O)O[C@]1(C(C)=O)CC[C@H]2[C@@H]3C[C@H](C)C4=CC(=O)CC[C@]4(C)[C@H]3CC[C@@]21C
category_label: TRUE
//
smiles_str: NCCNCCN
category_label: FALSE
//
smiles_str: Nc1cc([N+](=O)[O-])ccc1Cl
category_label: FALSE
//
smiles_str: O=P(c1ccccc1)(c1ccccc1)c1ccccc1
category_label: FALSE
//
smiles_str: CCc1c(C)cc(N)c(CC)c1N
category_label: FALSE
//
smiles_str: OC[C@H]1O[C@H](O[C@]2(CCl)O[C@H](CCl)[C@@H](O)[C@@H]2O)[C@H](O)[C@@H](O)[C@H]1Cl
category_label: FALSE
//
smiles_str: CC(=O)/C=C/C1=C(C)CCCC1(C)C
category_label: FALSE
